Recorded values, source ChEMBL document CHEMBL1134326.

Measurement Description: Therapeutic index (TI) determined as IC50 of vero cells to that of EC50
Type: cell-based
Run Parameters: plasmodium falciparum, read-out: TI
Items are presented alongside their recorded selectivity ratio.
Quantity Name: selectivity ratio

CC1CCC2C(CC3(Cc4cccc(F)c4)C(=O)OC4OC5(C)CCC6C(C)CCC3C46OO5)C(=O)OC3OC4(C)CCC1C32OO4 (stereo unspecified) :: 2.6
C[C@@H]1CCC2[C@H](CCCCCC[C@H]3C(=O)O[C@@H]4O[C@@]5(C)CC[C@H]6[C@H](C)CCC3[C@@]46OO5)C(=O)O[C@@H]3O[C@]4(C)CC[C@@H]1C23OO4 (stereo partly specified) :: 9.5
CC1CCC2C(CC3(CCCCCCC4(CC5C(=O)OC6OC7(C)CCC8C(C)CCC5C68OO7)C(=O)OC5OC6(C)CCC7C(C)CCC4C57OO6)C(=O)OC4OC5(C)CCC6C(C)CCC3C46OO5)C(=O)OC3OC4(C)CCC1C32OO4 (stereo unspecified) :: 1.6
CCCCCC[C@H]1C(=O)O[C@@H]2O[C@]3(C)CC[C@H]4[C@H](C)CC[C@@H]1[C@@]24OO3 :: 1.2
CC1CCC2C(CC3(CCCCc4ccccc4)C(=O)OC4OC5(C)CCC6C(C)CCC3C46OO5)C(=O)OC3OC4(C)CCC1C32OO4 (stereo unspecified) :: 7.1
